Target: heat-denatured misfolded ovalbumin (DOVA) (Gallus gallus, UniProt P01012)
Construct: purchased Sigma A5503
Sequence (P01012 2-386 limits assumed): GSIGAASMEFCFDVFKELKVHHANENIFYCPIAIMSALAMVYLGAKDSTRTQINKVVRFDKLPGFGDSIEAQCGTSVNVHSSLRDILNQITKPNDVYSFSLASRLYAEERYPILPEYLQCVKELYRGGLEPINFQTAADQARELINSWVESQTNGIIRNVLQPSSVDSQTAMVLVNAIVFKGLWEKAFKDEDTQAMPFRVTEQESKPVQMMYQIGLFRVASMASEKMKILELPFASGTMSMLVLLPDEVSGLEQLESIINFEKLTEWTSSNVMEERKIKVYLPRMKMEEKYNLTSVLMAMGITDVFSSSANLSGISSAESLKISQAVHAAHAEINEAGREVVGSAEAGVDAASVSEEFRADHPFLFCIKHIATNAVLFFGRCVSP
Test: ELISA binding of tPA to immobilized misfolded ovalbumin after pre-incubation with compounds
Parameters: species or system chicken
Settings: read-out: % tPA binding (after compound incubation), DOVA
Measured activity at 500 µg/mL by item

molecule: COc1cc2c(cc1O)-c1c(O)c(OC)cc3c1[C@H](C2)N(C)CC3 [compound 203, Bracteoline]
activity at 500 µg/mL (%): 105

molecule: COc1cc2c(cc1OC)-c1c(OC)c(OC)cc3ccnc(c13)C2=O [compound 204, 7-Oxoglaucine]
activity at 500 µg/mL (%): 80

molecule: COc1cc2c(cc1OC)-c1c(OC)c(OC)c(C=O)c3c1[C@H](C2)N(C)CC3 [compound 213, dehydroglaucine derivative]
activity at 500 µg/mL (%): 105

molecule: CN1CCc2cccc3c2C1Cc1ccc(O)c(O)c1-3 (centres unmarked) [compound 85]
activity at 500 µg/mL (%): 135

molecule: COc1cc2c(Cc3c4c5c(cc(OC)c(OC)c5c5c(OC)c(OC)ccc35)CCN4C)c3c4c(cc(OC)c(OC)c4c2cc1OC)CCN3C [compound 210, dehydroglaucine derivative]
activity at 500 µg/mL (%): 90

molecule: COc1cc2c(cc1OC)-c1c(O)c(OC)cc3c1[C@H](C2)N(C)CC3 [compound 201, Thaliporphine, thalicmidine]
activity at 500 µg/mL (%): 400

molecule: COc1ccc2c(c1O)-c1c(OC)c(OC)cc3c1[C@H](C2)N(C)CC3 [compound 138]
activity at 500 µg/mL (%): 65

molecule: COc1cc2c(cc1O)C[C@H]1c3c(cc(OC)c(O)c3-2)CCN1C [compound 202, Isoboldine]
activity at 500 µg/mL (%): 420
